# TESTED ON: T1, recombinant Fc-tag-fused human Notch-1 extracellular domain (Homo sapiens, UniProt P46531)
# T1 construct: Notch-1, human, extracellular domain; No catalogue number and no residue limits are printed; also called N1; source: bought: R&D Systems
# T1 sequence (P46531 19-1735): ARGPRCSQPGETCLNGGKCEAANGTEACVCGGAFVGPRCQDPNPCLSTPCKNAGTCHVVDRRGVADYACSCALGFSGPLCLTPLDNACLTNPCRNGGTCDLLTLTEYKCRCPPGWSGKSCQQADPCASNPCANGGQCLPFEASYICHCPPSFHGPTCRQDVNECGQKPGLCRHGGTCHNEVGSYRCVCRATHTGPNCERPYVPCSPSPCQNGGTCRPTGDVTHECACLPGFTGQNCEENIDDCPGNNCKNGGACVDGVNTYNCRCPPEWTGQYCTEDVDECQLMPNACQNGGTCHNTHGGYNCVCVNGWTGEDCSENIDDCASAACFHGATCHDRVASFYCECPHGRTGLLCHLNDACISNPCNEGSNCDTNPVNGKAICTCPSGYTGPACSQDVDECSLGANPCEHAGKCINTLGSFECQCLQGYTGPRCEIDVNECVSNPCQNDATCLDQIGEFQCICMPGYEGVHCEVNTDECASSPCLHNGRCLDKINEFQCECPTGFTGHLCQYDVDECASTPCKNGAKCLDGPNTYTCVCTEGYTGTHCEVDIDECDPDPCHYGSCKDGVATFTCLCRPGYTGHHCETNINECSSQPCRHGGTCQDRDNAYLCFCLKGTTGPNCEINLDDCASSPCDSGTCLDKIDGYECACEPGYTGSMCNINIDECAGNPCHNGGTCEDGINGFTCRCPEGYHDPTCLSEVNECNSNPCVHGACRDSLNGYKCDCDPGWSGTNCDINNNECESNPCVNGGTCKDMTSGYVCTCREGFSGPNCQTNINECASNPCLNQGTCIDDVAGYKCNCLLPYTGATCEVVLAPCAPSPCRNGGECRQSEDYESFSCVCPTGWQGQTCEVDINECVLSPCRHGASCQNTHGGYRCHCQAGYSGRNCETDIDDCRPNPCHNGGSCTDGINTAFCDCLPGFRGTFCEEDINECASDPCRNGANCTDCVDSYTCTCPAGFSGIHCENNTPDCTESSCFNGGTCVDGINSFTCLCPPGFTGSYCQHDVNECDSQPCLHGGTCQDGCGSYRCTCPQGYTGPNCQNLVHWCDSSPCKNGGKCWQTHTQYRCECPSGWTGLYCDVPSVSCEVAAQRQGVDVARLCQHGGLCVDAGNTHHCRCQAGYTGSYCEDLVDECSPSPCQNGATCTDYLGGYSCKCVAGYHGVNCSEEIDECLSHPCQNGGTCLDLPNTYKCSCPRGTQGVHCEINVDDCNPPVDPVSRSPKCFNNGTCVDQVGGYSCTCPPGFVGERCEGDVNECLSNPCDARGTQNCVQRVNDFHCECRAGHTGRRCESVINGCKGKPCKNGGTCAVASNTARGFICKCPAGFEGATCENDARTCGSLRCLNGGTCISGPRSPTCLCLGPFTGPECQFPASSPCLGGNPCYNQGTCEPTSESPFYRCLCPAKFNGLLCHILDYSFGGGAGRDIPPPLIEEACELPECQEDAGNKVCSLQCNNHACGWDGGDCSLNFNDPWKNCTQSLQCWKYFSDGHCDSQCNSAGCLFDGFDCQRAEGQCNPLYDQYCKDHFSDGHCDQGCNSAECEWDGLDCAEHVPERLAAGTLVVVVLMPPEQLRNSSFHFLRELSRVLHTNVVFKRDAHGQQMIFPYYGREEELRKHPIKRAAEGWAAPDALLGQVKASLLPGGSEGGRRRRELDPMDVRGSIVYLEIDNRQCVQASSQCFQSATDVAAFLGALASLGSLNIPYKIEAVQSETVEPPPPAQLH
# MEASUREMENT PROTOCOL: BLI; Octet RED384; Fabs immobilised on amine-reactive generation-2 or anti-Fab CH1 biosensors, target proteins in solution at three or more concentrations; 25 C, PBS; global 1:1 fit; apparent KD (Fc-Notch proteins may dimerize, avidity)
# MEASUREMENT PARAMETERS: both partners purified
Parameter: log10 of Kd. Scope: all listed entries.
Each number you see is log10 of Kd, and the unit inside the log is nM.

{"BINDER": "Fab N1/ModF/2 (purified soluble Fab) (Fab, V domains shown, light chain on the modified trastuzumab framework of the Modified-F library (template: anti-MBP Fab phagemid of Library-F, Persson et al., 2013); CDRs L1 and L2 fixed; Fab heavy chain on the modified trastuzumab framework of the Modified-F library; long CDRH3; The Fab is detected by an anti-HIS antibody; source: E. coli BL21, purified (Protein-L resin)) VH: EVQLVESGGGLVQPGGSLRLSCAASGFNLYSSYIHWVRQAPGKGLEWVAYISPYSGSTYYADSVKGRFTISADTSKNTAYLQMNSLRAEDTAVYYCARYGYAYHPYHSGYWYGALDYWGQGTLVTVSS VL: DIQMTQSPSSLSASVGDRVTITCRASQSVSSAVAWYQQKPGKAPKLLIYSASSLYSGVPSRFSGSRSGTDFTLTISSLQPEDFATYYCQQVSAGYGPPITFGQGTKVEIK", "OBSERVED": -0.80}

Ask: Recorded log10 of Kd of Fab N1/F/1 (purified soluble Fab) (Fab, V domains shown, light chain on the modified trastuzumab framework of Library-F (Persson et al., 2013); CDRs L1 and L2 fixed; Fab heavy chain on the modified trastuzumab framework of Library-F; short CDRH3; The Fab is detected by an anti-HIS antibody; source: E. coli BL21, purified (Protein-L resin)) VH: EVQLVESGGGLVQPGGSLRLSCAASGFNISSYSMHWVRQAPGKGLEWVAYISSSYGSTYYADSVKGRFTISADTSKNTAYLQMNSLRAEDTAVYYCARSWALDYWGQGTLVTVSS VL: DIQMTQSPSSLSASVGDRVTITCRASQSVSSAVAWYQQKPGKAPKLLIYSASSLYSGVPSRFSGSRSGTDFTLTISSLQPEDFATYYCQQYWGPITFGQGTKVEIK , please.
Reply: -0.35
